I'd be grateful if you could share measured Cytotoxicity (%) for these entries.
- Test system: HCT-8 host cells (Hs18S)
- condition.label: primary screening at 10 uM, from Hs18S ΔCT

>  <compound>
COc1ccc(-c2oc3cc(OC)c(OC)c(OC)c3c(=O)c2OC)cc1OC

>  <study.target>
HCT-8 host cells (Hs18S)

>  <Cytotoxicity (%)>
50.3%

$$$$
>  <compound>
CC(=O)NCCc1ccc(O)c(-c2c(O)c(O)c3c(c2O)C(=O)c2c(cc(O)c(C(=O)O)c2C(=O)O)C3=O)c1

>  <study.target>
HCT-8 host cells (Hs18S)

>  <Cytotoxicity (%)>
-6.6%

$$$$
>  <compound>
C=CCCCCCCCCCCCC(O)CC(O)COC(C)=O (stereo not drawn) [AVOCADENE ACETATE]

>  <study.target>
HCT-8 host cells (Hs18S)

>  <Cytotoxicity (%)>
-38.4%

$$$$
>  <compound>
CC1(C)CCC[C@]2(C)[C@H]3CC(=O)O[C@]3(C)CC[C@@H]12 [SCLAREOLIDE]

>  <study.target>
HCT-8 host cells (Hs18S)

>  <Cytotoxicity (%)>
32.7%

$$$$
>  <compound>
CCCCCCCCCCCCCCCCC(C(=O)O)C(O)(CC(=O)O)C(=O)O (stereo not drawn)

>  <study.target>
HCT-8 host cells (Hs18S)

>  <Cytotoxicity (%)>
18.9%

$$$$
>  <compound>
COc1cc2c(cc1OC)-c1c(oc3cc(O)cc(O)c3c1=O)CO2

>  <study.target>
HCT-8 host cells (Hs18S)

>  <Cytotoxicity (%)>
10.7%

$$$$
>  <compound>
C[C@@]1(O)CCOC(=O)C1

>  <study.target>
HCT-8 host cells (Hs18S)

>  <Cytotoxicity (%)>
16.5%

$$$$
>  <compound>
C/C1=C\CC/C(C)=C/CC(C)(C)/C=C/C1

>  <study.target>
HCT-8 host cells (Hs18S)

>  <Cytotoxicity (%)>
0.1%

$$$$
>  <compound>
CC(C)=CCC/C(C)=C/CC/C(C)=C/CC/C(C)=C/CC/C(C)=C/CC/C(C)=C/CC/C(C)=C/CC/C(C)=C/CC/C(C)=C/CO

>  <study.target>
HCT-8 host cells (Hs18S)

>  <Cytotoxicity (%)>
10.5%

$$$$
>  <compound>
CC(C)CCC[C@@H](C)[C@H]1CC[C@H]2[C@@H]3CC=C4C[C@@H](OC(=O)c5ccccc5)CC[C@]4(C)[C@H]3CC[C@]12C [CHOLESTERYL BENZOATE]

>  <study.target>
HCT-8 host cells (Hs18S)

>  <Cytotoxicity (%)>
5.3%

$$$$

// each compound listed below needs its Cytotoxicity (%)
1. COC[C@]12CN(C=O)[C@@H]3[C@@H]4[C@H](OC)[C@H]1[C@@]3([C@@H](OC)C[C@H]2O)[C@@H]1C[C@@]2(O)[C@H](OC(=O)c3ccccc3)[C@@H]1[C@]4(OC(C)=O)[C@@H](O)[C@@H]2OC
2. O=C(O[C@@H]1Cc2c(O)cc(O)cc2O[C@@H]1c1ccc(O)c(O)c1)c1cc(O)c(O)c(O)c1 [EPICATECHIN MONOGALLATE]
3. CC[C@H](CC[C@@H](C)[C@H]1CC[C@H]2[C@@H]3CC[C@H]4C[C@@H](O)CC[C@]4(C)[C@H]3CC[C@]12C)C(C)C
4. O=c1cc(-c2ccc(O)cc2)oc2ccc(O)cc12 [6,4'-DIHYDROXYFLAVONE]

["3.3%", "23.1%", "-61.6%", "17.9%"]

The recorded Cytotoxicity (%) for entry `COc1ccc(-c2oc3cc(OC)c(OC)c(OC)c3c(=O)c2OC)cc1` equals 15.6%
